Provide the reported TGI of each item.
Test system: UACC-257 melanoma
Assay: NCI tumour cell line growth inhibition, 48 h

Record "CC(C)(C)C(=O)c1c(C(F)(F)F)n([O-])c2cc(Cl)c(Cl)cc2[n+]1=O" , field TGI: 2.86 µM

Per the records, this compound ( "O=[N+]([O-])c1cccc(-c2cn3c(n2)Cc2ccccc2C3)c1" ) has TGI equal to > 100 µM

Looking up COc1ccc2nc3n(c2c1)C(c1c(F)cccc1F)SC3 (stereo not drawn) , I see its TGI listed as > 100 µM

* * *

System: OVCAR-4 ovarian
Test: NCI tumour cell line growth inhibition, 48 h
OBSERVED PROPERTY: TGI

The molecule listed as O=CC(O)C(O)C1OC(=O)c2cc(O)c(O)c(O)c2C2=C(O)C(O)=C3OC(=O)c4c(c(O)c(O)c5c4C3C2C(=O)O5)-c2c(cc(O)c(O)c2O)C(=O)OCC1O (centres undefined) has a reported TGI of 51.5 µM

Reported TGI for "O=S(O)CCCSSSCCCS(=O)O" was > 100 µM

Consider "O=C(COC(=O)c1cccc2c(=O)c3ccccc3[nH]c12)Nc1ccc(Cl)cc1" . Its measured TGI is > 100 µM

Reported TGI for "C=CCSC1=N/C(=C\c2ccc(OC)cc2)C(=O)N1CC=C" was > 100 µM

The reported value for "CCCCCN(CCCCC)C(=O)[C@H](CCC(=O)O)NC(=O)c1cc2ccccc2[nH]1" in terms of TGI is > 100 µM

// "Cc1ccc(N=Nc2c(O)ccc3n[nH]nc23)cc1" : TGI value = > 100 µM

Notebook: "C[C@H](CCC(=O)NCCS(=O)(=O)O)[C@H]1CC[C@H]2[C@@H]3[C@H](O)C[C@@H]4C[C@H](O)CC[C@]4(C)[C@H]3CC[C@]12C" , TGI read as > 100 µM

Field TGI (entry "COc1ccc(/C=C2\Sc3nnc(-c4ccccc4)n3N=C2c2cc(F)c(Cl)cc2Cl)cc1OC" ) reads > 100 µM

// TGI value for CCCCCCCCCC(=O)NC(CCC(=O)N(CCNC(=O)c1nc(-c2ccccc2)oc1-c1ccccc1)Cc1ccccc1)C(=O)O (centres undefined) : 75.2 µM

Please fill in: TGI reported for "CC(C)c1[nH]nc2c(NCc3ccc(-c4ccccn4)cc3)nc(SCCN(C)C)nc12" = 1.53 µM

Lookup result for "COc1ccc(/C=C2\COc3ccc(O)c(O)c3C2=O)cc1OC" ; measured TGI: 13.3 µM

Recorded result, "CN1C(=O)[C@H](c2c[nH]c3ccccc23)[C@H](c2c[nH]c3ccccc23)C1=O" , TGI: 50.6 µM

Quick note, TGI for "CCCCSc1nc(N)c2cn[nH]c2n1" landed at 70.4 µM

Quick note, TGI for O=[N+]([O-])c1ccc(C2SCc3nc4ccccc4n32)cc1 (centres undefined) landed at > 100 µM

The recorded TGI for COC(=O)C(=O)C(C(C)=O)C(=O)NCc1ccccc1 (centres undefined) is > 100 µM

// CC(=O)NC1CC(C(C)(C)NC(C)=O)CC=C1C (centres undefined) : TGI value = > 100 µM

Field TGI (entry "Cc1ccc(C(C)C)c(OCC(=O)N/N=C/c2c[nH]c3ccc(Br)cc23)c1" ) reads 13.6 µM

"O=C1C=C(NCC(c2ccccc2)c2ccccc2)C(=O)c2ncccc21" yielded TGI of 7.29 µM

The molecule listed as "COC(=O)c1ccc(C(=O)OC)c2nc3cc(Cl)ccc3nc12" shows TGI equal to > 100 µM

Form: molecule = "NNC(=O)CCc1ccc2ccc3ccccc3c2c1" ; TGI = > 100 µM

Record "Cc1ccc(-c2c3c(nn2-c2ccc(S(=O)(=O)NC(=O)NC4CCCCC4)cc2)-c2ccccc2C3)cc1" , field TGI: 39.7 µM

Summary for this molecule, "O=C1C[C@@H]2[C@@H](c3ccccc3)[C@@H]3C(=O)c4ccccc4NC(=O)[C@H]3[C@]2(O)c2ccccc2N1" : TGI is > 100 µM

Quick note, TGI for "CN(c1ccccc1)c1nc(=[N+]2CCCC2)ss1" landed at > 100 µM

GET /value?item= CCO[C@@]12CCC3CC4CC[C@@](OCC)(O1)C4C32 (some centres undefined) &field=TGI returns > 100 µM

* * *

Tested on: SF-268 CNS
Assay: NCI tumour cell line growth inhibition, 48 h
Give measured TGI for each item. Keep answers brief.

Note to self: TGI recorded for CC1=NN(C(=O)CC(=O)NC(=O)/C=C\c2ccccc2)C(=O)C1N=Nc1ccc([N+](=O)[O-])cc1 (stereo not drawn) was > 100 µM

The recorded TGI for C[C@]12Cc3conc3C(O)=C1CC[C@@H]1C2CC[C@@]2(C)C1CC[C@]2(C)O (stereo partly drawn) is > 100 µM

"CN1C(=O)[C@H](c2c[nH]c3ccccc23)[C@H](c2c[nH]c3ccccc23)C1=O" has a reported TGI of > 100 µM

* * *

System: SNB-78 CNS
Assay: NCI tumour cell line growth inhibition, 48 h
OBSERVED PROPERTY: TGI (µM)
Could you give me the number in µM? Just the number is fine.

So, "O=[N+]([O-])c1cccc(S(=O)(=O)N/N=C/c2cc(I)cc([N+](=O)[O-])c2O)c1" ? Its TGI was 66.4

The recorded TGI for CCCCCCCCCCCCCCCCCCOCC(C[N+]1(C)CCC(O)CC1)OCC (stereo not given) is 14.7

* * *

Test system: SNB-19 CNS
Test: NCI tumour cell line growth inhibition, 48 h
OBSERVED PROPERTY: TGI

For "Cc1ccc(C(C)C)c(OCC(=O)N/N=C/c2c[nH]c3ccc(Br)cc23)c1" the compound record lists TGI as 9.59 µM

Sample "CSc1ncc2c(C#N)c3[nH]c4ccccc4n3c(=O)c2n1" ; TGI observed: > 100 µM

Measured TGI, "CCOC(=O)N/N=C(\CC)NO" : > 100 µM

Please fill in: TGI reported for "C=C1C(=O)O[C@@H]2CC(CO)=C([C@@H](C)CCCO)[C@@H](OC(=O)/C(C)=C\C)[C@H]12" = > 54.6 µM

According to the records, this compound "C/C(O)=C(\C=NC(=S)c1cccnc1)C(=O)Nc1ccccc1C" displays TGI of > 100 µM

TGI recorded for this compound, COc1ccc(C2Oc3c(cccc3-c3c(-c4ccc(O)cc4)oc4cc(O)cc(O)c4c3=O)C(=O)C2O)cc1O (stereo not given) , is > 100 µM

compound "Cn1cc(C2=C(c3cc[nH]c3)C(=O)NC2=O)c2ccccc21" , TGI observed: > 25 µM

Lab note: "CSc1ccc(NC(=O)Nc2cc(C)ccn2)cc1" gave TGI of > 100 µM

For reference, reported TGI for "COC(=O)c1ccc(C(=O)OC)c2nc3cc(Cl)ccc3nc12" stands at > 100 µM

TGI reading for "CC(C)=CCC/C(C)=C/Cc1c(O)c(C)cc2c1[nH]c1cc(O)ccc12" : > 25 µM

* * *

Consider the following compounds; for each one, report its TGI.
Test system: RXF 393 renal
Assay: NCI tumour cell line growth inhibition, 48 h

Given item C=C(C)C1CCC2=CC(CC3(C)OC3C3=CC(C(=O)OC)=C(C1)O3)OC2=O (stereo not given) , the value recorded as its TGI is > 100 µM

The value of TGI measured for the compound "CC(C)(O)CCc1cccc(C(=O)c2cnn(-c3ccc(F)cc3)c2N)c1" turned out to be > 25 µM

Item: "COc1cccc2c(SCC(=O)Nc3ccccc3-c3ccccc3NC(=O)CSc3c4ccccc4nc4c(OC)cccc34)c3ccccc3nc12" | TGI: > 100 µM

Form: compound = CC(C)OC(=O)C1(C(C)C)CCc2ccc(C(=O)CCC(=O)O)cc21 (stereo not given) ; TGI = > 100 µM

Looking up O=[N+]([O-])c1ccc(C2SCc3nc4ccccc4n32)cc1 (stereo not given) , I found its TGI recorded as > 100 µM

* * *

Exercise: for every item that follows, state its recorded GI50.
Tested on: T-47D breast
Experiment: NCI tumour cell line growth inhibition, 48 h

The reported GI50 value, T-47D breast, for "CCCCSc1nc(N)c2cn[nH]c2n1" reads 8.28 µM

Reported T-47D breast GI50 for item "CC(=O)O[C@@H]1C2=C(C)C3(CC3)[C@@](C)(O)C(=O)C2=C[C@@]1(C)CO" was 0.635 µM

# value of GI50, T-47D breast, item OC(CN1CCCC2CCCCC21)c1cc2ccccc2c2ccccc12 (centres undefined) = 2.16 µM

Observed GI50, T-47D breast, "Cc1ccc(N=Nc2c(O)ccc3n[nH]nc23)cc1" : 10.2 µM

Known value: T-47D breast GI50 of the molecule "COc1cc2c(NC3CCN(C(C)C)CC3)nc(C3CCCCC3)nc2cc1OCCCN1CCCC1" equals 2.54 µM

Observed GI50 on T-47D breast, entry "CN(C)c1cc2c(Nc3ccc4c(cnn4Cc4ccccc4)c3)ncnc2cn1" , equals 3.38 µM

The measured GI50 that "CC(C)(O)CCc1cccc(C(=O)c2cnn(-c3ccc(F)cc3)c2N)c1" showed for T-47D breast is 8.17 µM

Field GI50 (system: T-47D breast) for entry "Oc1ccc(Cl)cc1Sc1cc(Cl)ccc1O" = 2.76 µM

Response field GI50 (T-47D breast) for item "O=C1c2ccn(CCCNC(CO)(CO)CO)c2C(=O)c2c1c(O)c1ccccc1c2O" : 16.4 µM
